log10 of DC50 by entry:
Target: EML4-ALK (Homo sapiens)
Construct: endogenous in cells; host or cells: H3122 (NSCLC), single-cell clone after CRISPR knock-in of HiBit; the other entry of the earlier key: EML4 (Q9HC35, Echinoderm microtubule-associated protein-like 4)
Sequence (Q9UM73 with tags, fused parts or gaps): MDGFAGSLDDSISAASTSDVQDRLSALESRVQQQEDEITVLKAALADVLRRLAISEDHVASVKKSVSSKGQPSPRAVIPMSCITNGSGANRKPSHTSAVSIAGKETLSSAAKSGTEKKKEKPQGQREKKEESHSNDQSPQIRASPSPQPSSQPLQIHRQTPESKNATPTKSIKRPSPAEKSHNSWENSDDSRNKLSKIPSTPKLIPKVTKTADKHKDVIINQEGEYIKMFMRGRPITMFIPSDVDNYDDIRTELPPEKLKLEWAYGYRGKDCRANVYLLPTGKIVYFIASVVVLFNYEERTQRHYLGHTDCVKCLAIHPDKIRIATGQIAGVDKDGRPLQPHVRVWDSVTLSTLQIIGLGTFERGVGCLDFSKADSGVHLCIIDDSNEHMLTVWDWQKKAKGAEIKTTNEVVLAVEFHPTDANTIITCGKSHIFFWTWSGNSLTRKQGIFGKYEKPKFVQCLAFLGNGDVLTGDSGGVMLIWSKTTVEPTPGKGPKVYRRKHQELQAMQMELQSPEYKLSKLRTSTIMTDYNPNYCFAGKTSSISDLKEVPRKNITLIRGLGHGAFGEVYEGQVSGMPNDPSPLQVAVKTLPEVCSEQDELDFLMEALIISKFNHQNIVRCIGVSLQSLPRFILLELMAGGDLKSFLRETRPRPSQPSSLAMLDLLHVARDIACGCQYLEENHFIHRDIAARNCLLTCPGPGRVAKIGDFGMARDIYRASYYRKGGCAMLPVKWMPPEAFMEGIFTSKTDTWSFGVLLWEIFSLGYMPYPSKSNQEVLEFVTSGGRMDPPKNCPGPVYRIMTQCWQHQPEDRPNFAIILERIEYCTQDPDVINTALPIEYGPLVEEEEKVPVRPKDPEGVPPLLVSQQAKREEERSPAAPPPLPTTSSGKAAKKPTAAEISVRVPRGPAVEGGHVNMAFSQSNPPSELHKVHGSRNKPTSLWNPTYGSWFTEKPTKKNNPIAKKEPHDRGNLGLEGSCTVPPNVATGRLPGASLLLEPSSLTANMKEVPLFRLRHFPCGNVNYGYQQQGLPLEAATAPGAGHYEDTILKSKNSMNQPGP
Assay: EML4-ALK HiBit degradation assay in CRISPR-tagged H3122 cells (Nano-Glo HiBit Lytic Detection)
Type: cell-based
Settings: Table 2; average DC50; read-out: Degradation Avg. DC50
Property Label: log10 of DC50 (log10 of the value in µM)

| Compound | log10 of DC50 |
| --- | --- |
| COc1cc(CCN(C)C(=O)CCOCCOCCOCC#Cc2cccc3c2C(=O)N(C2CCC(=O)NC2=O)C3=O)c(C)cc1Nc1ncc(Cl)c(Nc2ccccc2P(C)(C)=O)n1 (centres unmarked) [Compound 63] | 0.59 |
| COc1cc(CCN(C)C(=O)CCCCCC#Cc2cccc3c2C(=O)N(C2CCC(=O)NC2=O)C3=O)c(C)cc1Nc1ncc(Cl)c(Nc2ccccc2P(C)(C)=O)n1 (centres unmarked) [Compound 62] | 0.64 |
| COc1cc(CCNCCCC(=O)N[C@H](C(=O)N2C[C@H](O)C[C@H]2C(=O)N[C@@H](C)c2ccc(-c3scnc3C)cc2)C(C)(C)C)c(C)cc1Nc1ncc(Cl)c(Nc2ccccc2P(C)(C)=O)n1 [Compound 72] | 0.79 |
| COc1cc(CCN(C)C(=O)CCOCCC(=O)N[C@H](C(=O)N2C[C@H](O)C[C@H]2C(=O)N[C@@H](C)c2ccc(-c3scnc3C)cc2)C(C)(C)C)c(C)cc1Nc1ncc(Cl)c(Nc2ccccc2P(C)(C)=O)n1 [compound 71] | -0.46 |
| COc1cc(CCN(C)C(=O)CCCCCNc2cccc3c2C(=O)N(C2CCC(=O)NC2=O)C3=O)c(C)cc1Nc1ncc(Cl)c(Nc2ccccc2P(C)(C)=O)n1 (centres unmarked) [Compound 65] | 0.41 |
| COc1cc(CCN(C)C(=O)CCCCCCCCNC(=O)COc2cccc3c2C(=O)N(C2CCC(=O)NC2=O)C3=O)c(C)cc1Nc1ncc(Cl)c(Nc2ccccc2P(C)(C)=O)n1 (centres unmarked) [Compound 59] | 0.57 |
| COc1cc(CCN(C)C(=O)CCCC#Cc2cccc3c2C(=O)N(C2CCC(=O)NC2=O)C3=O)c(C)cc1Nc1ncc(Cl)c(Nc2ccccc2P(C)(C)=O)n1 (centres unmarked) [Compound 61] | 0.94 |
| COc1cc(CCN(C)C(=O)CCCCCCCCNc2cccc3c2C(=O)N(C2CCC(=O)NC2=O)C3=O)c(C)cc1Nc1ncc(Cl)c(Nc2ccccc2P(C)(C)=O)n1 (centres unmarked) [Compound 66] | 0.08 |
| COc1cc(CCN(C)C(=O)CCCNC(=O)COc2cccc3c2C(=O)N(C2CCC(=O)NC2=O)C3=O)c(C)cc1Nc1ncc(Cl)c(Nc2ccccc2P(C)(C)=O)n1 (centres unmarked) [Compound 57] | 0.97 |
| CC[C@@H](NC(=O)[C@@H]1C[C@H](NC(=O)CCCCCCC(=O)N(C)CCc2cc(OC)c(Nc3ncc(Cl)c(Nc4ccccc4P(C)(C)=O)n3)cc2C)CN1C(=O)[C@@H](NC(=O)[C@H](C)NC)C(C)(C)C)c1ccccc1 [Compound 74] | -0.31 |
| COc1cc(CCNCCCCCSC(C)(C)C(NC(C)=O)C(=O)N2C[C@H](O)C[C@H]2C(=O)N[C@@H](C)c2ccc(-c3scnc3C)cc2)c(C)cc1Nc1ncc(Cl)c(Nc2ccccc2P(C)(C)=O)n1 (some centres unmarked) [Compound 73] | 0.35 |

Cited source: patent US20230158157A1
